Cited source: patent US5929075A

# Test system: apolipoprotein B
# protocol-text: Apolipoprotein B (apo B) inhibition test in cultured human liver cells (Hepg2-cells)
# Type: cell-based
# test-context: concentration of the drug needed to reduce apoB secretion to 50% of the control, overnight at 37° C.
# Description: Cultured human liver cells (Hepg2-cells), which synthesize and secrete low-density lipoproteins, were incubated overnight at 37° C. in a liquid medium containing radioactively labelled leucine. […] Quantification of the amount of apolipoprotein B synthesized during the night resulted from measuring the radioactivity of the isolated complex. […] For each experiment the inhibition of apolipoprotein-B formation was expressed as […]
Kindly supply the reported IC50 values for the records listed here.
Give bare numbers, in nM.

Hi team, please reply with IC50 for each item in this list.
1. CCC(CC)n1ccn(-c2ccc(N3CCN(c4ccc(OC[C@H]5CO[C@](CSc6nncn6C)(c6ccc(F)cc6)O5)cc4)CC3)cc2)c1=O (relative stereo) [Compound 130]
2. CCC(CC)n1ncn(-c2ccc(N3CCN(c4ccc(OC[C@@H]5CO[C@@](CSc6nncn6C)(c6ccc(Cl)cc6)O5)cc4)CC3)cc2)c1=O (relative stereo) [Compound 44]
3. CCC(C)n1ncn(-c2ccc(N3CCN(c4ccc(OC[C@H]5CO[C@](CSc6ncccn6)(c6ccc(Cl)cc6)O5)cc4)CC3)cc2)c1=O (relative stereo) [Compound 101]

[140, 51, 160]
